Quick list: IC50 per entry.
Target Desc: Aminopeptidase N (Sus scrofa) (UniProt P15145)
Sequence (whole entry): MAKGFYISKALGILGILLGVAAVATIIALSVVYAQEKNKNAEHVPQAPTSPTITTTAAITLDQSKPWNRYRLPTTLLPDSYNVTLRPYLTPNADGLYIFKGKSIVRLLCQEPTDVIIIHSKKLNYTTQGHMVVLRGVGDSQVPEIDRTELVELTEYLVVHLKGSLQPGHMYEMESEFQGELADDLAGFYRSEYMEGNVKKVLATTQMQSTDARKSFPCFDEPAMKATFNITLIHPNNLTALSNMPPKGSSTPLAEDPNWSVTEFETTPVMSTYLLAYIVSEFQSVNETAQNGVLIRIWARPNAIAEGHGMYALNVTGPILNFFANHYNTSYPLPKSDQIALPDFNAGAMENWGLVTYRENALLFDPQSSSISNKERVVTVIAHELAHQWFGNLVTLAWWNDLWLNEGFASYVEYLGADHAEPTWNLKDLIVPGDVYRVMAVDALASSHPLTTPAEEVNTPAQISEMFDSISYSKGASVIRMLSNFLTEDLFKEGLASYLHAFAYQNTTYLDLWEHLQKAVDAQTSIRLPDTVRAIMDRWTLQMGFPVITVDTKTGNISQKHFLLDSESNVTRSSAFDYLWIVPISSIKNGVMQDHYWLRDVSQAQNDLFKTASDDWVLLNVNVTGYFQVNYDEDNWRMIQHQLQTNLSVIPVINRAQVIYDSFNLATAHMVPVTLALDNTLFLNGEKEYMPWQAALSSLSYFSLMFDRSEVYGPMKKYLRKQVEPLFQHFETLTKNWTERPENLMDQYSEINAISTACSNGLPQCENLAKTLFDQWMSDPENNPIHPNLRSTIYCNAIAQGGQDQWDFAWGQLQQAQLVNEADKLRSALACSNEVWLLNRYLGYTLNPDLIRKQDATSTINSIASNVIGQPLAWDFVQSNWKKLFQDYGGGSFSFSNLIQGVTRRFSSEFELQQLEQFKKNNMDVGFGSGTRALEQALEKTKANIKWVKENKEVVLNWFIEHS
Assay Info: Inhibition of pig aminopeptidase N assessed as ACC fluorophore released after 30 mins using Alanine ACC as substrate

# Compound, Target Desc, IC50
measured = [
    ("CCOC(=O)c1ccc(CNC(=S)P(=O)(O)C(C)N)cc1 (stereo not drawn)", "Aminopeptidase N (Sus scrofa) (UniProt P15145)", "> 20 µM"),
    ("CCCC(N)P(=O)(O)C(=S)NCc1ccc(C(=O)OCC)cc1 (stereo not drawn)", "Aminopeptidase N (Sus scrofa) (UniProt P15145)", "> 20 µM"),
    ("CCCCC(N)P(=O)(O)C(=S)NCc1ccccc1C(=O)OC (stereo not drawn)", "Aminopeptidase N (Sus scrofa) (UniProt P15145)", "> 20 µM"),
]
